sequences and their reported PBM binding z-score
# System: PPARg:RXRa IVT, anti-PPARg (NR concentration 270 nM, RXRa partner concentration 90 nM)
# METHOD_DESCRIPTION: PBM binding z-score (relative to random genomic background probes); higher = stronger binding; sequences stand for … in GC…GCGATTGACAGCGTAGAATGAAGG
Simply state the number, no unit and no words.

# count of solved cases: 4
- QUERY_SEQUENCE: "CTCGAAAGGTCATGCTCAGGTGAGTATACCAAAC"
  RECORDED_MEASUREMENT: 4.89
- QUERY_SEQUENCE: "AATACAGGGTAACTAGGCCAGAGTAGGTACGAAT"
  RECORDED_MEASUREMENT: 4.67
- QUERY_SEQUENCE: "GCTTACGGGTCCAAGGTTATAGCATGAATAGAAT"
  RECORDED_MEASUREMENT: 0.338
- QUERY_SEQUENCE: "GATACGGGGTCAAGGCCAGAGTACGCGTATTGAT"
  RECORDED_MEASUREMENT: 6.14

Consider now this further sequence.
For reference, reported PBM binding z-score for GCTTAAGGGTCAAAGGTTATAGCATGAATAGAAT stands at 5.94

====

# Test system: RARb homodimer (NR concentration 270 nM)
# METHOD_DESCRIPTION: PBM binding z-score (relative to random genomic background probes); higher = stronger binding; sequences stand for … in GC…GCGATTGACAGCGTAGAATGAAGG
MEASURED_METRIC: PBM binding z-score
Simply state the number, no unit and no words.

For reference, reported PBM binding z-score for CGTCAAAGTCCAAGGTAACGTAACAGAAAGCAGC stands at 0.655

For reference, reported PBM binding z-score for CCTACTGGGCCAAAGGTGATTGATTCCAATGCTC stands at 0.601

For reference, reported PBM binding z-score for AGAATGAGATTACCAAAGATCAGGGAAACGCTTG stands at -0.938

For reference, reported PBM binding z-score for ATCGAAAGGTCATGAGGTGAGTATACAGAAAGGC stands at 5.04

For reference, reported PBM binding z-score for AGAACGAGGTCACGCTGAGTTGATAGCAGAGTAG stands at 4.38

For reference, reported PBM binding z-score for GATACAGGGTCAGCTACAGGCCAGAGTATGGAAA stands at 2.99

====

# Test system: PPARg DBDmut:RXRa IVT, anti-PPARg (DBD mutation: PPARg1 K132A/R137A, NR concentration 270 nM, RXRa partner concentration 90 nM)
# METHOD_DESCRIPTION: PBM binding z-score (relative to random genomic background probes); higher = stronger binding; sequences stand for … in GC…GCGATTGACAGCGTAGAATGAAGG
MEASURED_METRIC: PBM binding z-score
Simply state the number, no unit and no words.

# count of solved cases: 6
- QUERY_SEQUENCE: "ATCGAAAGGTCATGAGGTGAGTATACAGAAAGGC"
  PBM binding z-score: 2.8
- QUERY_SEQUENCE: "ACTCGGTGGACAAAGGTCAGAGCTACGCCAGTGA"
  PBM binding z-score: -0.478
- QUERY_SEQUENCE: "CCTTACGGGTCACGAGGTTGTAGCACGACGAGCG"
  PBM binding z-score: 1.56
- QUERY_SEQUENCE: "CGTCCAAGGTCAATGCTAGATCAGTGAAAGCATT"
  PBM binding z-score: -0.125
- QUERY_SEQUENCE: "CGTCCAAGGTCAGCGGGTCAGTGAAAGCGACGTG"
  PBM binding z-score: -0.302
- QUERY_SEQUENCE: "GGAACGAGGTCAAAGTTGATAGCATCTGTCGACG"
  PBM binding z-score: 0.31

For reference, reported PBM binding z-score for GCTGCTAGGTCAACTGATGGCCAGCTAAAGCTCG stands at -0.855

For reference, reported PBM binding z-score for AATACAGGGTCACGAGGCCAGAGTAGGTACGAAT stands at 2.21

====

# System: LXRb homodimer (NR concentration 270 nM)
# METHOD_DESCRIPTION: PBM binding z-score (relative to random genomic background probes); higher = stronger binding; sequences stand for … in GC…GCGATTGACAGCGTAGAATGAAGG
sequences and their reported PBM binding z-score

# count of solved cases: 5
- QUERY_SEQUENCE: "CGTCAAAGGTCAGCAGGTCAGTGAAAGCGACGTG"
  TEST_SYSTEM: "LXRb homodimer (NR concentration 270 nM)"
  MEASURED_METRIC: "PBM binding z-score"
  RECORDED_MEASUREMENT: 1.28
- QUERY_SEQUENCE: "CGTCAAAGTTCAAGGTCACGTAACAGAAAGCAGC"
  TEST_SYSTEM: "LXRb homodimer (NR concentration 270 nM)"
  MEASURED_METRIC: "PBM binding z-score"
  RECORDED_MEASUREMENT: 2.05
- QUERY_SEQUENCE: "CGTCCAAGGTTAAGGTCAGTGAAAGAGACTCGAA"
  TEST_SYSTEM: "LXRb homodimer (NR concentration 270 nM)"
  MEASURED_METRIC: "PBM binding z-score"
  RECORDED_MEASUREMENT: -0.224
- QUERY_SEQUENCE: "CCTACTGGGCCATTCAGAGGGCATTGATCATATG"
  TEST_SYSTEM: "LXRb homodimer (NR concentration 270 nM)"
  MEASURED_METRIC: "PBM binding z-score"
  RECORDED_MEASUREMENT: -0.759
- QUERY_SEQUENCE: "ATCGAAAGGTCAACGAGGTGAGTATACACCGTTT"
  TEST_SYSTEM: "LXRb homodimer (NR concentration 270 nM)"
  MEASURED_METRIC: "PBM binding z-score"
  RECORDED_MEASUREMENT: 3.41

Consider now this further sequence.
Entry CCTTAAGGGTCACGAGGTTATAGCACGACGAGCG : PBM binding z-score on LXRb homodimer (NR concentration 270 nM) = 0.697

====

# Tested on: RARb homodimer (NR concentration 270 nM)
# METHOD_DESCRIPTION: PBM binding z-score (relative to random genomic background probes); higher = stronger binding; sequences stand for … in GC…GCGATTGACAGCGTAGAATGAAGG
Parameter class (string): assigned from measured PBM binding z-score. Ranges: bucket 1 (below 2), bucket 2 (2 to below 4), bucket 3 (4 or more)

Completed entries (count: 8):
- QUERY_SEQUENCE: "TAGCCTAGTTCATTCAGGGGCCAGTATAGAAAGC"
  GROUP_LABEL: "bucket 1"
- QUERY_SEQUENCE: "CGAACTAGGTCATCCAGGACCGTGAATACATTGA"
  GROUP_LABEL: "bucket 2"
- QUERY_SEQUENCE: "CTATGTGGGTTAAGGGGGTCATTCAGTTTGAAAG"
  GROUP_LABEL: "bucket 3"
- QUERY_SEQUENCE: "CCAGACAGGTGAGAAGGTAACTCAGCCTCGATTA"
  GROUP_LABEL: "bucket 1"
- QUERY_SEQUENCE: "AGTCAAAGTTCATCTAGGTAACATAAGATATGCT"
  GROUP_LABEL: "bucket 2"
- QUERY_SEQUENCE: "GCTGCTAGGTCAACTGATGGTCAACTAAAGCTCG"
  GROUP_LABEL: "bucket 2"
- QUERY_SEQUENCE: "TCTATTAGTTGATTAGGGCAACCGAAACAGCGGA"
  GROUP_LABEL: "bucket 1"
- QUERY_SEQUENCE: "ATCAAAAGGTCGAGGTGAGTATAGAGAAAGGGAA"
  GROUP_LABEL: "bucket 2"

Next, consider the following sequence.
// return the class label for TGTCAAAGTTCAAAGGTTACGTAAGTATCCACAC bucket 3

====

# Tested on: LXRb homodimer (NR concentration 270 nM)
# METHOD_DESCRIPTION: PBM binding z-score (relative to random genomic background probes); higher = stronger binding; sequences stand for … in GC…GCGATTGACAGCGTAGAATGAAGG
sequences and their reported PBM binding z-score
Simply state the number, no unit and no words.

# count of solved cases: 2
- QUERY_SEQUENCE: "ATCTCTAGGTTAAGATAGTTCAGTGAATGCAAAT"
  PBM binding z-score: 0.754
- QUERY_SEQUENCE: "CAGCATAGGTCAGGGCCAGTATAGGAGGAACGTT"
  PBM binding z-score: -0.316

Consider now this further sequence.
For reference, reported PBM binding z-score for TAGCCTAGGTCATGCGGGCCAATATAGTGTCGGC stands at -0.31
